Study system: thromboxane synthetase (Oryctolagus cuniculus)
Construct: from tissue; host or cells: rabbit platelets (microsomes)
Sequence (G1TAZ9 1-530): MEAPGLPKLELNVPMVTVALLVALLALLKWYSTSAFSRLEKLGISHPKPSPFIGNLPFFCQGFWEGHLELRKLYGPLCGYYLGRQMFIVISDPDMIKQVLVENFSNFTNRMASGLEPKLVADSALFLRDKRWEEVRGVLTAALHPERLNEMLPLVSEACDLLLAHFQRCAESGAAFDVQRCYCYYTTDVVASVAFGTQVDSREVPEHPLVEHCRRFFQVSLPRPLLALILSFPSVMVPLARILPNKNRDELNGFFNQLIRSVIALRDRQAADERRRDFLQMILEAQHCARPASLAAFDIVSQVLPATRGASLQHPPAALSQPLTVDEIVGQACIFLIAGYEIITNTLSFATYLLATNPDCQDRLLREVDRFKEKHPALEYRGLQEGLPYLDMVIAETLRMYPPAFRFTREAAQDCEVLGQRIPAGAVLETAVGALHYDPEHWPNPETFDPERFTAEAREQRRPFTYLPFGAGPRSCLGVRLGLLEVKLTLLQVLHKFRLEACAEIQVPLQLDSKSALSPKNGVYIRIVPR
Test summary: Inhibitory potency of imidazole compounds on thromboxane synthetase (conversion of prostaglandin H2 to thromboxane B2 by rabbit platelet microsomes)
Assay type: biochemical
Conditions used: 0.025 μM, 24° C., 1 minute
Structures can show the parent of a compound that is named as a salt.
Readout type: inhibition at 0.025 µM (%)

# Compound, Val
records = [
    ("O=C(O)CCCCCCn1ccnc1 [hydrochloride]", 10.1),
    ("COC(=O)CCCCCCn1ccnc1 [N-(6-methoxycarbonylhexyl)imidazole, reference compound]", 5.5),
    ("O=C(O)CCCCCCCn1ccnc1 [Hydrochloride]", 31.2),
]

I: O=C(O)CCCCCCCCCCCn1ccnc1 [hydrochloride]
II: O=C(O)CCCCCCCCCCn1ccnc1 [hydrochloride]
III: O=C(O)CCCCCCCCn1ccnc1 [hydrochloride]
IV: O=C(O)CCCCCCCCCn1ccnc1 [hydrochloride]
Ordering: ascending inhibition at 0.025 µM. Form entry: labels listed in requested order. II, I, IV, III
